Data credit: patent US20240400572A1

Test: Brain distribution study
Assay type: in vivo, male C57BL/6 mice
Conditions: male, C57BL/6, mouse, brain/plasma, po, 20 mg/kg, PO 20 mg/kg, male C57BL/6 mice, 4 hr; read-out: Brain Concentration/Plasma Concentration, Individuals
READOUT_TYPE: Kp at 4 hr

Fill in: Kp at 4 hr of `NC(=O)c1ncn2c(=O)n(CCF)nnc12` is ___
0.174

---

Assay: Brain distribution study
Assay type: in vivo, male C57BL/6 mice
Conditions: male, C57BL/6, mouse, brain, po, 20 mg/kg, PO 20 mg/kg, male C57BL/6 mice, 0.083 hr; read-out: brain Concentration, Individuals
Description: Compound KL50 dosing solution: 3.39% DMSO+96.61% (10% HP-β-CD in saline) at 2 mg/mL; • 1) Weigh 17.39 mg of compound KL50 into a clean tube. • 2) Add 0.295 mL DMSO into the tube containing the compound. • 3) Vortex the tube for 3 min and sonicate it for 4 min. • 4) Add 8.400 mL 10% HP-β-CD in saline into the tube and vortex the tube for 3 min. […]
READOUT_TYPE: concentration at 0.083 hr (ng/g)
// return numeric value only (unit: ng/g, not printed)

>>> recorded_number("NC(=O)c1ncn2c(=O)n(CCF)nnc12 [KL-50]")
1540

Fill in: concentration at 0.083 hr of CNC(=O)c1ncn2c(=O)n(CCF)nnc12 [Compound I-1] is ___
5860

---

Assay: Brain distribution study
Format: in vivo, male C57BL/6 mice
Details: male, C57BL/6, mouse, brain, po, 20 mg/kg, PO 20 mg/kg, male C57BL/6 mice, 1 hr; read-out: brain Concentration, Individuals
Experimental: Compound KL50 dosing solution: 3.39% DMSO+96.61% (10% HP-β-CD in saline) at 2 mg/mL; • 1) Weigh 17.39 mg of compound KL50 into a clean tube. • 2) Add 0.295 mL DMSO into the tube containing the compound. • 3) Vortex the tube for 3 min and sonicate it for 4 min. • 4) Add 8.400 mL 10% HP-β-CD in saline into the tube and vortex the tube for 3 min. […]
READOUT_TYPE: concentration at 1 hr (ng/g)
// return numeric value only (unit: ng/g, not printed)

>>> recorded_number("CNC(=O)c1ncn2c(=O)n(CCF)nnc12")
1140

Please find the next compound below.
Fill in: concentration at 1 hr of `NC(=O)c1ncn2c(=O)n(CCF)nnc12` is ___
2920

---

Experiment: Brain distribution study
Assay type: in vivo, male C57BL/6 mice
Settings: male, C57BL/6, mouse, brain, po, 20 mg/kg, PO 20 mg/kg, male C57BL/6 mice, 0.5 hr, N=3; read-out: brain Concentration, Mean
READOUT_TYPE: concentration at 0.5 hr (ng/g)
// return numeric value only (unit: ng/g, not printed)

>>> recorded_number("NC(=O)c1ncn2c(=O)n(CCF)nnc12")
3600

Fill in: concentration at 0.5 hr of `CNC(=O)c1ncn2c(=O)n(CCF)nnc12` is ___
3940

---

Assay: Brain distribution study
Type: in vivo, male C57BL/6 mice
Conditions: male, C57BL/6, mouse, brain/plasma, po, 20 mg/kg, PO 20 mg/kg, male C57BL/6 mice, 8 hr; read-out: Brain Concentration/Plasma Concentration, Individuals
READOUT_TYPE: Kp at 8 hr
// print number alone

Fill in: Kp at 8 hr of `NC(=O)c1ncn2c(=O)n(CCF)nnc12` is ___
0.28

---

Test: Brain distribution study
Format: in vivo, male C57BL/6 mice
Conditions: male, C57BL/6, mouse, brain, po, 20 mg/kg, PO 20 mg/kg, male C57BL/6 mice, 0.083 hr, N=3; read-out: brain Concentration, Mean
Method: Compound KL50 dosing solution: 3.39% DMSO+96.61% (10% HP-β-CD in saline) at 2 mg/mL; • 1) Weigh 17.39 mg of compound KL50 into a clean tube. • 2) Add 0.295 mL DMSO into the tube containing the compound. • 3) Vortex the tube for 3 min and sonicate it for 4 min. • 4) Add 8.400 mL 10% HP-β-CD in saline into the tube and vortex the tube for 3 min. […]
READOUT_TYPE: concentration at 0.083 hr (ng/g)
// return numeric value only (unit: ng/g, not printed)

>>> recorded_number("NC(=O)c1ncn2c(=O)n(CCF)nnc12")
1820

Please find the next compound below.
Fill in: concentration at 0.083 hr of `CNC(=O)c1ncn2c(=O)n(CCF)nnc12` is ___
6300

---

Assay: Pharmacokinetic study, plasma
Assay type: in vivo
Details: male, C57BL/6, mouse, plasma, po, 20 mg/kg, male C57BL/6 mice, 0.083 hr, read-out: plasma Concentration, Individuals
Measured concentration at 0.083 hr, listed per entry for reference.
// return numeric value only (unit: ng/mL, not printed)

>>> recorded_number("NC(=O)c1ncn2c(=O)n(CCF)nnc12")
22300

Please find the next molecule below.
Fill in: concentration at 0.083 hr of `CNC(=O)c1ncn2c(=O)n(CCF)nnc12` is ___
21200

---

Assay: Brain distribution study
Format: in vivo, male C57BL/6 mice
Details: male, C57BL/6, mouse, brain/plasma, po, 20 mg/kg, PO 20 mg/kg, male C57BL/6 mice, 8 hr, N=3; read-out: Brain Concentration/Plasma Concentration, Mean
Protocol: Compound KL50 dosing solution: 3.39% DMSO+96.61% (10% HP-β-CD in saline) at 2 mg/mL; • 1) Weigh 17.39 mg of compound KL50 into a clean tube. • 2) Add 0.295 mL DMSO into the tube containing the compound. • 3) Vortex the tube for 3 min and sonicate it for 4 min. • 4) Add 8.400 mL 10% HP-β-CD in saline into the tube and vortex the tube for 3 min. […]
READOUT_TYPE: Kp at 8 hr
// print number alone

Fill in: Kp at 8 hr of `NC(=O)c1ncn2c(=O)n(CCF)nnc12` is ___
0.233

---

Tested on: LN229 MGMT−/MMR− cells
Assay: Short-term cell viability assay
Assay type: cell-based, human
Conditions: Homo sapiens, LN-229
READOUT_TYPE: IC50

Fill in: IC50 of NC(=O)c1ncn2c(=O)n(CCF)nnc12 [KL-50] is ___
~20 µM

---

Test: Brain distribution study
Type: in vivo, male C57BL/6 mice
Conditions: male, C57BL/6, mouse, brain/plasma, po, 20 mg/kg, PO 20 mg/kg, male C57BL/6 mice, 2 hr; read-out: Brain Concentration/Plasma Concentration, Individuals
READOUT_TYPE: Kp at 2 hr
// print number alone

Fill in: Kp at 2 hr of CNC(=O)c1ncn2c(=O)n(CCF)nnc12 [Compound I-1] is ___
0.432

Fill in: Kp at 2 hr of NC(=O)c1ncn2c(=O)n(CCF)nnc12 [KL-50] is ___
0.362

---

Experiment: Pharmacokinetic study, plasma
Format: in vivo
Settings: mouse; plasma, PO 20 mg/kg, male C57BL/6 mice
READOUT_TYPE: AUC(0-inf) (ng·h/mL)
// return numeric value only (unit: ng·h/mL, not printed)

>>> recorded_number("NC(=O)c1ncn2c(=O)n(CCF)nnc12 [KL-50]")
28800

Please find the next molecule below.
Fill in: AUC(0-inf) of CNC(=O)c1ncn2c(=O)n(CCF)nnc12 [Compound I-1] is ___
9680

---

Measured Kp at 0.083 hr, listed per entry for reference.
Experiment: Brain distribution study
Format: in vivo, male C57BL/6 mice
Conditions: male, C57BL/6, mouse, brain/plasma, po, 20 mg/kg, PO 20 mg/kg, male C57BL/6 mice, 0.083 hr; read-out: Brain Concentration/Plasma Concentration, Individuals
// print number alone

Fill in: Kp at 0.083 hr of `CNC(=O)c1ncn2c(=O)n(CCF)nnc12` is ___
0.276

Fill in: Kp at 0.083 hr of `NC(=O)c1ncn2c(=O)n(CCF)nnc12` is ___
0.0691

---

Assay: Brain distribution study
Format: in vivo, male C57BL/6 mice
Details: mouse; brain, PO 20 mg/kg, male C57BL/6 mice
READOUT_TYPE: Cmax

>>> result("NC(=O)c1ncn2c(=O)n(CCF)nnc12")
"3690 ng/g"

Please find the next compound below.
Fill in: Cmax of `CNC(=O)c1ncn2c(=O)n(CCF)nnc12` is ___
7210 ng/g

---

Assay: Brain distribution study
Format: in vivo, male C57BL/6 mice
Settings: mouse; brain, PO 20 mg/kg, male C57BL/6 mice
Measured half-life, listed per entry for reference.
// return numeric value only (unit: min, not printed)

>>> recorded_number("CNC(=O)c1ncn2c(=O)n(CCF)nnc12 [Compound I-1]")
21.1

Fill in: half-life of NC(=O)c1ncn2c(=O)n(CCF)nnc12 [KL-50] is ___
70.8
